Recorded IC50, one value per entry.
# tgt: IRAK4 kinase (Homo sapiens (Human), UniProt Q9NWZ3)
# Sequence (Q9NWZ3 whole entry): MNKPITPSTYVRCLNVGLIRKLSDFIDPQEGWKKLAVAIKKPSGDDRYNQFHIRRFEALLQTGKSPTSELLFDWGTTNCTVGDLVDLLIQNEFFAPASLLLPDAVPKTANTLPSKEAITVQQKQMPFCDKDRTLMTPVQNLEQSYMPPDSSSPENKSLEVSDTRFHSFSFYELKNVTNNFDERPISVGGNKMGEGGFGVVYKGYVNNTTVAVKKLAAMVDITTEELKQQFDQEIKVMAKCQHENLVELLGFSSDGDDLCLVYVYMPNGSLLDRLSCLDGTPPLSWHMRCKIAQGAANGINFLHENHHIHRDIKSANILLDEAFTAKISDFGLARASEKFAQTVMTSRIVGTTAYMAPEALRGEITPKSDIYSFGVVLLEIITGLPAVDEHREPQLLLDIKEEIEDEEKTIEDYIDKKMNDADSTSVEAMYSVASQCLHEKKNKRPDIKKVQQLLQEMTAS

Look over these answered cases.
# get_value(readout='IC50', item= CN1CCN(C(=O)c2csc(Nc3nc(N[C@H]4CC[C@](C)(O)CC4)c4sccc4n3)c2)CC1 [Compound 50] ) 100 to 1000 nM

So what's the measured IC50 for this one? Cc1cc(Nc2nc(O[C@H]3CC[C@H](O)CC3)c3sccc3n2)sn1 [Compound 15] 100 to 1000 nM

Consider the molecule CN1CCC(N(C)c2ccc(Nc3nc(N[C@H]4CC[C@H](O)CC4)c4sccc4n3)cc2)CC1 [Compound 70] and give its measured IC50. 100 to 1000 nM

What does the record list as IC50 for C[C@]1(O)CC[C@H](Nc2nc(Nc3cc(C(=O)Nc4cccnc4)ns3)nc3ccsc23)CC1 [Compound 62] ? 100 to 1000 nM

Report IC50 for O[C@H]1CC[C@H](Nc2nc(Nc3ccncc3)nc3ccsc23)CC1 [Compound 21] please. 1000 to 10000 nM

Further cases:
Request the reported IC50 associated with Cn1cc(Nc2nc(O[C@H]3CC[C@@H](N)C3)c3sccc3n2)cn1 [Compound 85] 100 to 1000 nM

Query (molecule): Cc1cc(Nc2nc(N[C@H]3CC[C@H](N4CCOCC4)CC3)c3sccc3n2)sn1 [Compound 100] ; field requested: IC50 ≤ 100 nM

Consider the molecule C[C@]1(O)CC[C@H](Nc2nc(Nc3cnn(C(=O)CC4CCNCC4)c3)nc3ccsc23)CC1 [Compound 44] and give its measured IC50. 100 to 1000 nM

Could you share which IC50 value was measured for Cc1cc(Nc2nc(N[C@H]3CC[C@H](O)CC3)c3c(ccn3C)n2)sn1 [Compound 104] ? ≤ 100 nM

Looking for the measured IC50 of C[C@]1(O)CC[C@H](Nc2nc(Nc3cc(C(=O)NC4CCNCC4)n[nH]3)nc3ccsc23)CC1 [Compound 51] , can you help? 1000 to 10000 nM

Sample Cc1cc(Nc2nc(N[C@H]3CC[C@H](N(CCO)CCO)CC3)c3sccc3n2)sn1 [Compound 97] — what was its IC50? ≤ 100 nM

Look up IC50 for this molecule: CN1CCC(NC(=O)c2cc(Nc3nc(N[C@H]4CC[C@](C)(O)CC4)c4sccc4n3)sn2)CC1 [Compound 59] ≤ 100 nM

Suppose we examine the molecule Cc1cc(Nc2nc(N[C@H]3CC[C@](C)(O)CC3)c3sccc3n2)cc(C)n1 [Compound 22] ; what IC50 value has been reported? 100 to 1000 nM

I would be grateful if you could share the reported IC50 for Cc1cc(Nc2nc(NC3CCC(O)C(C)C3)c3sccc3n2)sn1 (stereo not drawn) [Compound 11] . 100 to 1000 nM

Endpoint output: IC50 of CN[C@H]1C[C@@H](Nc2nc(Nc3cc(C)ns3)nc3ccsc23)C1 [Compound 87] . Value? 100 to 1000 nM
